- measured-on: Rac GTPase-activating protein 1 (Homo sapiens) (UniProt Q9H0H5)
- Sequence (Q9H0H5 whole entry, looked up): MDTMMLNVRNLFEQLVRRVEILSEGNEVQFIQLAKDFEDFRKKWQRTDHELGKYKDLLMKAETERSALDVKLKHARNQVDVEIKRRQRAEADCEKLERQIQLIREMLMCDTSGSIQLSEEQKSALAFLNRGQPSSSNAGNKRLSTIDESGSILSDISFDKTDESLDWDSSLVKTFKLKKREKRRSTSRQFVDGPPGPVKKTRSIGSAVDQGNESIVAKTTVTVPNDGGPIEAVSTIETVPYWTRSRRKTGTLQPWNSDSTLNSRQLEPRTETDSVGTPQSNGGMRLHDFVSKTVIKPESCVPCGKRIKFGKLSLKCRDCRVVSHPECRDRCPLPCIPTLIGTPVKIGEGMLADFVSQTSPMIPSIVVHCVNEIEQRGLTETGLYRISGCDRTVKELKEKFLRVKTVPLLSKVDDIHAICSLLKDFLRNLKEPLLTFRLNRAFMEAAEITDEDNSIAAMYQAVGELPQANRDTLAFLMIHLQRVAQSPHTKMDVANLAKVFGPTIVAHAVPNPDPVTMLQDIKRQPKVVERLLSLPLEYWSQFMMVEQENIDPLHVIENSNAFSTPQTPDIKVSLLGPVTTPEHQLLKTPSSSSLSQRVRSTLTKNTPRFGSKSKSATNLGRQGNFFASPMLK
- procedure-details: blockers of MgcRacGAP-driven Rac1 GTP hydrolysis – biochemical, ADP Hunter fluorescence, primary and confirmatory, confirmation (AID 624330);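 also: fluorescence reports GDP produced by GAP-driven GTP hydrolysis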
- experimental-context: MgcRacGAP-stimulated Rac1 GTP hydrolysis, at 30 µM, hits give high values, GST-tagged Rac1 F28L mutant substrate
Screen size: about 340,000 compounds; about 2,100 (0.62%) were called active. The list is a sample of the results. Potency and affinity values are given separately.
Field: inhibition. Provide a value for each of the molecules that follow.
// return numeric value only (unit: %, not printed)

What value of measured inhibition is listed for CCN(CC)S(=O)(=O)c1ccc(NC(=O)CNC2CCCCC2)cc1 ?
31.5

What value of measured inhibition is listed for COc1ccccc1CN(C)CC(=O)Nc1ccc(Cl)cc1C(F)(F)F ?
18.9

What value of measured inhibition is listed for Nc1nc(N)c2cc(Sc3cccc(C(F)(F)F)c3)ccc2n1 ?
5.58

What value of measured inhibition is listed for CC(C)(C)NC(=O)COC(=O)c1ccc(Cl)nc1 ?
2.54

What value of measured inhibition is listed for CC(=O)NN1C(=O)/C(=C\c2ccc(Cl)cc2)SC1=S ?
7.77

What value of measured inhibition is listed for O=C(NN1C(=O)/C(=C/c2cccs2)SC1=S)c1ccncc1 ?
8.88

What value of measured inhibition is listed for CNc1ncnc(Sc2nc(N)nc3nc[nH]c23)c1[N+](=O)[O-] ?
-4.52

What value of measured inhibition is listed for C=CCn1c(SCC(=O)NC2(C)CCS(=O)(=O)C2)nc2ccccc21 (centres undefined) ?
1.26

What value of measured inhibition is listed for CC1=CC(C)(C)NC(=S)N1c1cccc2ccccc12 ?
12.8

What value of measured inhibition is listed for COc1ccc(CN(C)CC(=O)Nc2ccccc2C(F)(F)F)c(OC)c1 ?
24.5

What value of measured inhibition is listed for Cc1ccc(C(=O)O)cc1-c1ccc(C=C2C(=O)c3ccccc3C2=O)o1 ?
12.9

What value of measured inhibition is listed for Nc1nc(N)c2cc(Sc3ccc(Cl)cc3)ccc2n1 ?
11.7

What value of measured inhibition is listed for Cc1ccc(C=C2C(=O)c3ccccc3C2=O)o1 ?
8.39

What value of measured inhibition is listed for CCOc1cc(/C=C2\SC(=S)N(Nc3ccccc3)C2=O)ccc1O ?
11.1

What value of measured inhibition is listed for COc1ccc(NC(=O)CCNS(=O)(=O)c2ccc3c(c2)CC(C)N3C(=O)C2CC2)cc1 (centres undefined) ?
8.6

What value of measured inhibition is listed for COc1ccc(C(C(=O)NC2CCCCC2)N(Cc2ccco2)C(=O)c2ccccn2)c(OC)c1 (centres undefined) ?
10.7

What value of measured inhibition is listed for CC(C(=O)NCCN1CCOCC1)(c1ccccc1)c1ccccc1 ?
9.67

What value of measured inhibition is listed for Nc1nc(SCc2ccccc2)c2[nH]cnc2n1 ?
5.48

What value of measured inhibition is listed for Cc1nn(Cc2ccccc2)c(C)c1NC(=O)CSc1nnc(-c2cc(Cl)ccc2O)n1C ?
3.78

What value of measured inhibition is listed for CC1=C(C(=O)Nc2ccccc2C)C2(CCCC2)C(C(N)=O)C(=O)N1 (centres undefined) ?
-3.29

What value of measured inhibition is listed for OC(COC(c1ccc(F)cc1)c1ccc(F)cc1)CN1CCc2ccccc2C1 (centres undefined) ?
20.1

What value of measured inhibition is listed for Cc1ccc(-c2nc(CS(=O)(=O)CC(=O)NCc3cccc(F)c3)c(C)o2)cc1 ?
7.24

What value of measured inhibition is listed for C/C(=N\NS(C)(=O)=O)c1ccc(C)cc1 ?
5.59

What value of measured inhibition is listed for CC1(C)CC(=O)C=C(NCCN2CCN(C(=S)NC3CCCCC3)CC2)C1 ?
-3.74

What value of measured inhibition is listed for CCc1c(C)c2ccc(O)c(CN(C)C)c2oc1=O ?
3.54

What value of measured inhibition is listed for COc1ccc(-c2nc(NC3=NCCCCC3)sc2C)cc1 ?
6.19

What value of measured inhibition is listed for O=C(CN(Cc1ccc(Br)cc1)S(=O)(=O)c1ccccc1)NCc1ccccn1 ?
11.6

What value of measured inhibition is listed for CCOc1ccc(-n2nc3c(SCCN4CCCC4)nnc(C)c3c2C)cc1 ?
10.3

What value of measured inhibition is listed for COc1ccc(C2CC(=O)Nc3ccccc3S2(=O)=O)cc1OC (centres undefined) ?
11.4

What value of measured inhibition is listed for Cc1ccc(NC(=O)CNCC2CCCCC2)cc1S(=O)(=O)N(C)C ?
28.9

What value of measured inhibition is listed for COC(=O)C(Cc1c[nH]c2ccccc12)NC(=O)c1cccc(S(=O)(=O)N2CCCCC2)c1 (centres undefined) ?
2.63

What value of measured inhibition is listed for Cn1c(SCC(=O)Nc2cccc(F)c2)nnc1-c1cc2ccccc2o1 ?
7.89

What value of measured inhibition is listed for COc1cc(/C=C2\SC(=S)N(Nc3ccccc3)C2=O)cc(OC)c1OC ?
11.2

What value of measured inhibition is listed for N#Cc1ccc(N[C@@H]2CCN3C(=O)c4ccccc4[C@@H]3C[C@H]2O)cc1 ?
4.35

What value of measured inhibition is listed for Cc1cccc(N2CC(C(=O)Nc3cccc(S(=O)(=O)N4CCCCC4)c3)CC2=O)c1C (centres undefined) ?
5.62

What value of measured inhibition is listed for Cn1cnc2c1c(=O)n(Cc1cccc(Br)c1)c(=O)n2C ?
0.32

What value of measured inhibition is listed for CN(C)S(=O)(=O)c1ccc(C(=O)Nc2cccc(S(=O)(=O)NC3=NCCC3)c2)cc1 ?
3.74

What value of measured inhibition is listed for Cc1cccc(C(C)C)c1NC(=O)Cc1ccc(S(=O)(=O)N2CCOCC2)s1 ?
6.93

What value of measured inhibition is listed for O=C1C(=Cc2ccco2)C(=O)c2ccccc21 ?
12.3

----------
Field: inhibition. Provide a value for each of the compounds that follow.
- measured-on: Rac GTPase-activating protein 1 (Homo sapiens) (UniProt Q9H0H5)
- procedure-details: blockers of MgcRacGAP-driven Rac1 GTP hydrolysis – biochemical, ADP Hunter fluorescence, primary and confirmatory, confirmation (AID 624330);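 also: fluorescence reports GDP produced by GAP-driven GTP hydrolysis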
- experimental-context: MgcRacGAP-stimulated Rac1 GTP hydrolysis, at 30 µM, hits give high values, GST-tagged Rac1 F28L mutant substrate
Screen size: about 340,000 compounds; about 2,100 (0.62%) were called active. A selection follows. Measured potencies and affinities stand elsewhere.

Which measured inhibition belongs to CC(C)CNC(=O)CC(c1ccccc1)c1c(O)ccc2ccccc12 (stereo unspecified) , tested on Rac GTPase-activating protein 1 (Homo sapiens) (UniProt Q9H0H5)?
10.5% (inactive)

Which measured inhibition belongs to Cc1ccccc1N1CCN(C2=NC(=O)/C(=C/c3cn[nH]c3-c3ccccc3)S2)CC1 , tested on Rac GTPase-activating protein 1 (Homo sapiens) (UniProt Q9H0H5)?
-0.05% (inactive)

Which measured inhibition belongs to O=C(Nc1ccc2c(c1)OC1(CCCC1)O2)C1CC1 , tested on Rac GTPase-activating protein 1 (Homo sapiens) (UniProt Q9H0H5)?
9.85% (inactive)

Which measured inhibition belongs to Cc1csc(NC(=O)c2ccncc2)n1 , tested on Rac GTPase-activating protein 1 (Homo sapiens) (UniProt Q9H0H5)?
7.69% (inactive)

Which measured inhibition belongs to CC(C)CC(=O)NC(c1ccccc1)c1c(O)ccc2ccccc12 (stereo unspecified) , tested on Rac GTPase-activating protein 1 (Homo sapiens) (UniProt Q9H0H5)?
7.84% (inactive)

Which measured inhibition belongs to CN(C)S(=O)(=O)c1cccc(NC(=S)N/N=C/c2cccc(O)c2)c1 , tested on Rac GTPase-activating protein 1 (Homo sapiens) (UniProt Q9H0H5)?
2.96% (inactive)

----------
- measured-on: Rac GTPase-activating protein 1 (Homo sapiens) (UniProt Q9H0H5)
- procedure-details: blockers of MgcRacGAP-driven Rac1 GTP hydrolysis – biochemical, ADP Hunter fluorescence, primary and confirmatory, confirmation (AID 624330);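 also: fluorescence reports GDP produced by GAP-driven GTP hydrolysis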
- experimental-context: MgcRacGAP-stimulated Rac1 GTP hydrolysis, at 30 µM, hits give high values, GST-tagged Rac1 F28L mutant substrate
In all, about 340,000 compounds went through this assay and about 2,100 (0.62%) were called active. Not all results are given here. Measured potencies and affinities stand elsewhere.
quantity-kind: inhibition (%)
// return numeric value only (unit: %, not printed)

What value of measured inhibition is listed for Cc1c(/C=N\NC(=O)C2(C)CC2(Cl)Cl)cnn1C (centres undefined) ?
2.13

What value of measured inhibition is listed for NC(CSCc1ccccc1Cl)C(=O)O (centres undefined) ?
-0.96

What value of measured inhibition is listed for COc1cc(/C=C/C(=O)OCC(=O)c2ccc[nH]2)cc(OC)c1OC ?
1.61

What value of measured inhibition is listed for O=C1c2ccccc2C(=O)N1CCCCNc1ccccc1 ?
-2.64

What value of measured inhibition is listed for CN(CCCS(=O)(=O)[O-])c1ccc(/C=C/c2ccc3ccccc3[n+]2C)cc1 ?
9.16

What value of measured inhibition is listed for C/C(=N\NC(=O)Cn1nc(C)c([N+](=O)[O-])c1C)c1ccc(Cl)s1 ?
5.29

What value of measured inhibition is listed for COc1ccc(C(=O)Nc2c(N)nc(SCC(=O)N3CCC(C)CC3)[nH]c2=O)cc1 ?
6.29

What value of measured inhibition is listed for COCCn1c(SC(C(=O)Nc2cc(C)ccc2OC)c2ccccc2)nnc1-c1ccc(Cl)cc1 (centres undefined) ?
8.02

What value of measured inhibition is listed for Cc1nn(-c2ccccc2)c(Cl)c1/C=N/O ?
9.11

What value of measured inhibition is listed for CC1(C)C(=O)N(c2ccccc2)C1c1ccccc1O (centres undefined) ?
3.93

What value of measured inhibition is listed for COc1ccc(N=c2sc3ccccc3n2C)cc1 ?
3.05

What value of measured inhibition is listed for Oc1ccc(N=Nc2cccc(C(F)(F)F)c2)cc1C=Nc1ccc(N2CCOCC2)cc1 ?
9.72

What value of measured inhibition is listed for COc1ccc(CCNC(=O)C2CCCN2C(=O)Nc2ccc(F)cc2)cc1OC (centres undefined) ?
7.58

What value of measured inhibition is listed for O=C(O)Cn1cc(/C=C2\SC(=O)N(c3ccccc3)C2=O)c2ccccc21 ?
0.86

What value of measured inhibition is listed for Cc1ccsc1C(=O)OCC(=O)NC1CCCCC1 ?
-3

What value of measured inhibition is listed for O=C(c1cc(=O)c2ccccc2o1)N1CCCc2ccccc21 ?
4.48

What value of measured inhibition is listed for CCc1cc(-c2n[nH]c(C)c2-c2nc3ccccc3n2C)c(O)c(CN2CCN(C)CC2)c1O ?
1.55

What value of measured inhibition is listed for Cc1nc(C/C(=N\Nc2ccccc2)c2ccc(O)cc2O)cs1 ?
10.9

What value of measured inhibition is listed for COc1cc(OC)c(OC)cc1/C=N/NC(=S)NCCN1CCOCC1 ?
-4.53
